FYI, the data here is from patent US20100169988A1.

# target: APP-TAP-AICD (human, UniProt P05067 18-695)
# assay notes: streptavidin purification of APP-TAP-AICD from brain homogenate; LTQ-FT semiquantitative method, transgenic mouse 75 vs control mouse 72
List of probability that this protein is enriched values.
Field format: numeric only.

A selection of reference data follows.
{"binder": "14-3-3 protein theta (14-3-3 protein tau) (other, mouse, UniProt P68254 1-245, looked up, also called 14-3-3 θ) MEKTELIQKAKLAEQAERYDDMATCMKAVTEQGAELSNEERNLLSVAYKNVVGGRRSAWRVISSIEQKTDTSDKKLQLIKDYREKVESELRSICTTVLELLDKYLIANATNPESKVFYLKMKGDYFRYLAEVACGDDRKQTIENSQGAYQEAFDISKKEMQPTHPIRLGLALNFSVFYYEILNNPELACTLAKTAFDEAIAELDTLNEDSYKDSTLIMQLLRDNLTLWTSDSAGEECDAAEGAEN", "result number": 1}
{"binder": "14-3-3 protein epsilon (14-3-3E) (other, mouse, UniProt P62259 1-255, looked up) MDDREDLVYQAKLAEQAERYDEMVESMKKVAGMDVELTVEERNLLSVAYKNVIGARRASWRIISSIEQKEENKGGEDKLKMIREYRQMVETELKLICCDILDVLDKHLIPAANTGESKVFYYKMKGDYHRYLAEFATGNDRKEAAENSLVAYKAASDIAMTELPPTHPIRLGLALNFSVFYYEILNSPDRACRLAKAAFDDAIAELDTLSEESYKDSTLIMQLLRDNLTLWTSDMQGDGEEQNKEALQDVEDENQ", "result number": 1}

Attention now turns to another entry.
Req: # lookup: probability that this protein is enriched of Fructose-bisphosphate aldolase A (Muscle-type aldolase) (Aldolase 1) (enzyme, mouse, UniProt P05064 2-364, looked up) PHPYPALTPEQKKELSDIAHRIVAPGKGILAADESTGSIAKRLQSIGTENTEENRRFYRQLLLTADDRVNPCIGGVILFHETLYQKADDGRPFPQVIKSKGGVVGIKVDKGVVPLAGTNGETTTQGLDGLSERCAQYKKDGADFAKWRCVLKIGEHTPSALAIMENANVLARYASICQQNGIVPIVEPEILPDGDHDLKRCQYVTEKVLAAVYKALSDHHVYLEGTLLKPNMVTPGHACTQKFSNEEIAMATVTALRRTVPPAVTGVTFLSGGQSEEEASINLNAINKCPLLKPWALTFSYGRALQASALKAWGGKKENLKAAQEEYIKRALANSLACQGKYTPSGQSGAAASESLFISNHAY
Resp: 1
